test_target: Hexose transporter 1 (Plasmodium falciparum) (UniProt O97467)
assay_info: ST_JUDE_LEISH: Cytotoxicity at 2uM final concentration against transgenic Leishmania Mexicana promastigotes LmPfHT that are glucose transport deficient and complemented with the Plasmodium falciparum hexose transporter. Activity is measured by DNA content using SYBR green in vitro
Assay type: functional
value_kind: inhibition
Please answer using a numeric value trailed by its unit.

Examples with their reported inhibition follow.
compound	inhibition
CCN(CC)CCCC(C)Nc1c2ccccc2nc2c1ccc1ccccc12 (configuration not stated)	3.26%
COc1cccc(C2C(C(=O)Nc3ccccc3)=C(C)N=c3sc(=Cc4ccc(O)cc4)c(=O)n32)c1 (configuration not stated)	27.8%
CC(=NNC(=N)N)c1ccc2c(ccc3ccccc32)c1	1.59%
CC(=O)N(C)c1cccc(C(=O)Nc2ccc(-c3cccc(-c4nc5cccc(C)c5[nH]4)c3)cc2)c1	1.06%
COc1ccc(NC(=O)N2CCN(CCCCCNC(=O)/C=C/c3ccc(C(F)(F)F)cc3)CC2)cc1Cl	1.82%
COc1ccc(CNC2CCN(C)CC2)cc1-c1ccc(S(=O)(=O)NCc2ccccc2)c(C)c1	8.41%
CC1CCN(C(=O)[C@H](Cc2c[nH]c3ccccc23)NS(=O)(=O)c2ccc(Cl)cc2)CC1	2.42%
CN(C(=O)c1nn(-c2ccccn2)c2nccc(-c3cccs3)c12)C1CCCCC1	5.58%

Qu. Fill blank: measured inhibition of the compound `NC(=O)C1CCN(Cc2cccc(-c3cccc(-c4nc5cc(F)ccc5[nH]4)c3)c2)CC1` is ____.
Ans. 1.68%

Qu. Now the same for `O=C(Nc1ccc(Cl)c(Cl)c1)Nc1ccccc1N1CCNCC1`
Ans. 0.2%

Qu. What do you get for `CNC(=O)c1cc(S(=O)(=O)N2CCN(c3ccccn3)CC2)cs1` ?
Ans. 0.78%

Qu. Also, `c1ccc(COc2ccc(C3CCCCC3)cc2)nc1` please.
Ans. 2.32%

---

# key: entry, value: inhibition
test_target: Glucose transporter (Leishmania mexicana)
assay_info: ST_JUDE_LEISH: Cytotoxicity at 2uM final concentration against transgenic Leishmania Mexicana promastigotes LmGT2 that are glucose transport deficient and complemented with the L. Mexicana glucose transporter 2. Activity is measured by DNA content using SYBR green in vitro
Assay type: functional
Respond with the bare value in %.

molecule	test_target	value_kind	measured_number
CC(=O)c1cccc(NC(=O)NC2CCN(CCCCCNC(=O)/C=C/c3ccc(Cl)c(Cl)c3)CC2)c1	Glucose transporter (Leishmania mexicana)	inhibition	5.52
O=C(Nc1cccc(CN2CCCN(Cc3ccc(F)cc3)CC2)c1)c1cc2ccccc2s1	Glucose transporter (Leishmania mexicana)	inhibition	-0.88
COc1cccc(Nc2nc(N)c3ccccc3n2)c1	Glucose transporter (Leishmania mexicana)	inhibition	7.62
OC(CNCc1cccc(Oc2ccc(Cl)cc2)c1)c1cc(C(F)(F)F)cc(C(F)(F)F)c1 (stereo not given)	Glucose transporter (Leishmania mexicana)	inhibition	-2.95
COc1ccc(-c2cccc(NC(=O)c3cccc(C#N)c3)c2)cc1CN(C)CCO	Glucose transporter (Leishmania mexicana)	inhibition	5.5
O=C(Nc1cccc(C(F)(F)F)c1)Nc1cc(F)c(F)cc1Cl	Glucose transporter (Leishmania mexicana)	inhibition	2.36

Qu. I would be grateful if you could share the reported inhibition for `CCCCCn1c(Sc2ccc(C#N)c([N+](=O)[O-])c2)nnc1-c1cccs1` .
Ans. 2.32

Qu. Entry `Clc1cc(Nc2ccnc3ccc(Br)cc23)ccc1Oc1ccc(Cl)c2ccccc12` please
Ans. 2.81

Qu. What do you have for `O=C(Nc1cccc([N+](=O)[O-])c1)Nc1ccc(Cl)c(C(F)(F)F)c1` ?
Ans. 0.73

Qu. What do you get for `CCOC(=O)N1NC(=O)N(c2ccccc2)C1(c1ccccc1)c1ccccc1` ?
Ans. 2.17

---

test_target: Glucose transporter (Leishmania mexicana) (UniProt O61059)
assay_info: ST_JUDE_LEISH: Cytotoxicity at 2uM final concentration against transgenic Leishmania Mexicana promastigotes LmGT2 that are glucose transport deficient and complemented with the L. Mexicana glucose transporter 2. Activity is measured by DNA content using SYBR green in vitro
Assay type: functional
value_kind: inhibition (%)
// units = %; emit number, no label

Some entries whose results are on file:
molecule	inhibition / %
CCCCN(CCCC)CCC(O)C(=Cc1ccc(Cl)cc1Cl)c1ccc(C(F)(F)F)cc1N (stereo not drawn)	0.7
Cc1[nH]c(C)c(-c2ccc(-c3ccc(C#N)cc3)nc2)c(=O)c1Br	6.23

Qu. Identify the measured inhibition of `Cc1ccc(NC(=O)Nc2ccccc2)cc1-c1ccc(C(=O)Nc2ccncc2)cc1` for Glucose transporter (Leishmania mexicana) (UniProt O61059).
Ans. 9

Qu. Now try `CCCC(C(=O)OCCNC)(c1ccccc1)c1ccccc1` .
Ans. 0.81

Qu. Here is the next molecule: `CC(C)CNCc1cccc(-c2cccc(CNCCCN3CCN(C)CC3)c2)c1`
Ans. 4.44

Qu. Can you check CC(C)(C(=O)Nc1ccc(C2CCC(NCC3CC3)CC2)c(Cl)c1)c1cccc(OC(F)F)c1 (stereo not drawn) next?
Ans. 9.65

Qu. Queued: `Cc1cccc(CNc2nc(C)cc(N[C@@H](Cc3ccccc3)C(=O)NCCc3ccccc3)n2)c1`
Ans. 0.77

---

Attribute: inhibition
test_target: Glucose transporter (Leishmania mexicana) (UniProt O61059)
assay_info: ST_JUDE_LEISH: Cytotoxicity at 2uM final concentration against transgenic Leishmania Mexicana promastigotes LmGT2 that are glucose transport deficient and complemented with the L. Mexicana glucose transporter 2. Activity is measured by DNA content using SYBR green in vitro
Format: functional
Remember to quote the unit after the number.

In the examples that follow, each entry is paired with its recorded inhibition.
compound	test_target	result
CC1(C)CC(NC(=O)NC2CCN(Cc3ccccc3)CC2)CC(C)(CNC(=O)NC2CCN(Cc3ccccc3)CC2)C1 (stereo not drawn)	Glucose transporter (Leishmania mexicana) (UniProt O61059)	1.3%
CC(C)c1ccc(NS(=O)(=O)c2cccc(C(=O)NC3CCN(CC4CCCCC4)CC3)c2)cc1	Glucose transporter (Leishmania mexicana) (UniProt O61059)	1.74%
COc1cccc(NC(=O)Nc2ccc(-c3oc(C(=O)NCC(c4ccccc4)N(C)C)cc3-c3ccncc3)cc2)c1 (stereo not drawn)	Glucose transporter (Leishmania mexicana) (UniProt O61059)	3.18%
COc1ccc2c(=NN=Cc3ccccc3Cl)cc(C)[nH]c2c1	Glucose transporter (Leishmania mexicana) (UniProt O61059)	0.2%
Cc1nc(C)c(-c2ccc(C(=O)c3ccc(Cl)cc3)cc2)c(O)c1Br	Glucose transporter (Leishmania mexicana) (UniProt O61059)	0.57%

Qu. inhibition for `COc1ccc(-c2cccc(NC(=O)c3cccc(Cl)c3)c2)cc1CN1CCN(C)CC1` ?
Ans. 7.77%

---

Each entry below lists one item and its recorded inhibition value.
test_target: Hexose transporter 1 (Plasmodium falciparum) (UniProt O97467)
assay_info: ST_JUDE_LEISH: Cytotoxicity at 2uM final concentration against transgenic Leishmania Mexicana promastigotes LmPfHT that are glucose transport deficient and complemented with the Plasmodium falciparum hexose transporter. Activity is measured by DNA content using SYBR green in vitro
Format: functional
Give a bare numeral; the unit % is implied.

compound	unit_of_measurement	inhibition
N#Cc1ccc2c(c1)CCN(CCC1CCC(NC(=O)c3cc4cccc(Cl)c4[nH]3)CC1)CC2 (stereo not drawn)	%	11.7
CCc1cccc(OCCCON2C(=N)N=C(N)NC2(C)C)c1	%	9.83

Qu. Form field: reported inhibition of `CS(=O)(=O)CCOCc1ccc(-c2ccc3ncnc(Nc4ccc(OCc5cccc(F)c5)c(Cl)c4)c3c2)o1`
Ans. 4.18

---

test_target: Solute carrier family 2, facilitated glucose transporter member 1 (Homo sapiens)
assay_info: ST_JUDE_LEISH: Cytotoxicity at 2uM final concentration against transgenic Leishmania Mexicana promastigotes LmGLUT1 that are glucose transport deficient and complemented with the human glucose transporter GLUT1. Activity is measured by DNA content using SYBR green in vitro
Format: functional
value_kind: inhibition (%)
The answer is to be given in %; state only the numeric part.

Answered cases to consult:
compound	test_target	unit_of_measurement	inhibition
Cc1nc(Nc2cc(Cl)ccc2O)nc(Nc2cc(Cl)ccc2O)c1[N+](=O)[O-]	Solute carrier family 2, facilitated glucose transporter member 1 (Homo sapiens)	%	4.36
CCN(CCCN1CCCCC1)c1cc(C)nc(Nc2cc(C)ccc2C)n1	Solute carrier family 2, facilitated glucose transporter member 1 (Homo sapiens)	%	-1.92
COc1cc(-c2nc3ccc(N4CCN(C)CC4)cc3[nH]2)cc(OC)c1OC	Solute carrier family 2, facilitated glucose transporter member 1 (Homo sapiens)	%	2.08
CCCNC(=O)c1cncc(-c2ccc(CNCCCc3ccccc3)cc2)c1	Solute carrier family 2, facilitated glucose transporter member 1 (Homo sapiens)	%	1.92

Qu. // lookup inhibition for Cc1ccccc1C1CCN(C2CCC(NC(=O)c3cncc(-c4ccccc4)c3)CC2)CC1 (stereo unspecified)
Ans. 6.15

Qu. Consider next the compound `CN(C)CCN(Cc1ccccc1-c1ccc(CNCCc2ccccc2)cc1)C(=O)NC1CCCCC1` in the same way.
Ans. 3.67

Qu. Now this one: `Cc1ccc(C(=O)Nc2ccc(F)cc2)cc1-c1nc(NC2CC(C)(C)NC(C)(C)C2)nc2c1ccc(=O)n2-c1c(F)cccc1F`
Ans. 4.77

Qu. And for `Cc1cccc2nc(-c3ccc(-c4cccc(NC(=O)c5ccncc5)c4)cc3)[nH]c12` ?
Ans. 0.03

Qu. Entry `O=C(Nc1cccc(-c2cccc(-c3nc4cc(F)ccc4[nH]3)c2)c1)c1csnn1` please
Ans. 6.12

Qu. Follow-up item: `COc1ccc2nccc([C@@H](O)CN3CCC(NCCOc4ccc(F)cc4F)CC3)c2c1`
Ans. 7.55

Qu. Next entry: `CC(=O)Nc1nc(C(=O)Nc2cccc(-c3cccc(-c4nc5ccccc5[nH]4)c3)c2)cs1`
Ans. 12

// data source = ChEMBL document CHEMBL3433997
